These measurements were taken from PubChem BioAssay AID2060600.

- System: 996289-038-R-J1-PDC complex spheroid viability
- assay details: Anticancer human tumor 996289-038-R-J1-PDC patient-derived colon adenocarcinoma cell line growth inhibition [CLK]
- test parameters: second compound 3.16 µM; first compound 0.000949 µM; stronger effect = lower value
reported property: viability, T/C

Please review the entries below; each comes with its answer.
[
  {
    "molecule": "C=CC(=O)Nc1cc(Nc2nccc(-c3cn(C)c4ccccc34)n2)c(OC)cc1N(C)CCN(C)C + CN1CCN(c2cc(C(=O)Nc3cc4cc(-c5cnn(C)c5)ccc4cn3)ccn2)CC1",
    "value reported": "0.79%"
  },
  {
    "molecule": "CC(C)CC(NC(=O)C(Cc1ccccc1)NC(=O)c1cnccn1)B(O)O (centres undefined) + CN1CCN(c2cc(C(=O)Nc3cc4cc(-c5cnn(C)c5)ccc4cn3)ccn2)CC1",
    "value reported": "0.51%"
  }
]

Output viability, T/C of CC(C)CC(NC(=O)C(Cc1ccccc1)NC(=O)c1cnccn1)B(O)O (centres undefined) + CNC(=O)c1ccc(Nc2nc(OC3CCCC3)c3c(-c4ccc5nc(C)oc5c4)c[nH]c3n2)c(OC)c1 58.1%

Output viability, T/C of C=CC(=O)Nc1cc(Nc2nccc(-c3cn(C)c4ccccc34)n2)c(OC)cc1N(C)CCN(C)C + CNC(=O)c1ccc(Nc2nc(OC3CCCC3)c3c(-c4ccc5nc(C)oc5c4)c[nH]c3n2)c(OC)c1 64.2%

---

- System: 996289-038-R-J1-PDC complex spheroid viability
- assay details: Anticancer human tumor 996289-038-R-J1-PDC cell line growth inhibition [CLK];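 further: spheroids exposed to the agents for 7 days before readout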
- test parameters: second compound 1 µM; first compound 3.16 µM; stronger effect = lower value
- Text: A high-throughput screen of multi-cell type tumor spheroids was designed to identify active combinations of […] and targeted small molecules. Complex spheroids include a stromal component modeled by human endothelial cells (HUVEC) and fibroblasts modeled by human mesenchymal stem cells (MSCs). […] Compounds. […] If the clinical Cmax for an agent had not been determined, the highest concentration tested was 10 microM. […]
Recorded measurements of viability, T/C, one per entry
State the answer as a number, implicitly in %.

Please review the entries below; each comes with its answer.
[
  {
    "molecule": "Nc1ccccc1NC(=O)c1ccc(CNC(=O)OCc2cccnc2)cc1 + CN1CCN(c2cc(C(=O)Nc3cc4cc(-c5cnn(C)c5)ccc4cn3)ccn2)CC1",
    "assay target": "996289-038-R-J1-PDC complex spheroid viability",
    "output unit": "%",
    "viability, T/C": 1.46
  },
  {
    "molecule": "O=c1[nH]cc(F)c(=O)[nH]1 + CN1CCN(c2cc(C(=O)Nc3cc4cc(-c5cnn(C)c5)ccc4cn3)ccn2)CC1",
    "assay target": "996289-038-R-J1-PDC complex spheroid viability",
    "output unit": "%",
    "viability, T/C": 6.47
  }
]

Output viability, T/C of CC(=O)O[C@H]1C(=O)[C@@]2(C)[C@H]([C@H](OC(=O)c3ccccc3)[C@]3(O)C[C@H](OC(=O)[C@H](O)[C@@H](NC(=O)c4ccccc4)c4ccccc4)C(C)=C1C3(C)C)[C@]1(OC(C)=O)CO[C@@H]1C[C@@H]2O + CN1CCN(c2cc(C(=O)Nc3cc4cc(-c5cnn(C)c5)ccc4cn3)ccn2)CC1 3.96

Output viability, T/C of CC(Nc1ccc2c(c1)OCCn1cc(N3C(=O)OCC3C(F)F)nc1-2)C(N)=O (stereo not given) + CNC(=O)c1ccc(Nc2nc(OC3CCCC3)c3c(-c4ccc5nc(C)oc5c4)c[nH]c3n2)c(OC)c1 29.2

Output viability, T/C of CCCS(=O)(=O)Nc1ccc(F)c(C(=O)c2c[nH]c3ncc(-c4ccc(Cl)cc4)cc23)c1F + CN1CCN(c2cc(C(=O)Nc3cc4cc(-c5cnn(C)c5)ccc4cn3)ccn2)CC1 5.81
